- systemUnderTest: Human ALDH2 (Homo sapiens)
- Construct: purchased Abcam ab87415
- Sequence (P05091 18-517): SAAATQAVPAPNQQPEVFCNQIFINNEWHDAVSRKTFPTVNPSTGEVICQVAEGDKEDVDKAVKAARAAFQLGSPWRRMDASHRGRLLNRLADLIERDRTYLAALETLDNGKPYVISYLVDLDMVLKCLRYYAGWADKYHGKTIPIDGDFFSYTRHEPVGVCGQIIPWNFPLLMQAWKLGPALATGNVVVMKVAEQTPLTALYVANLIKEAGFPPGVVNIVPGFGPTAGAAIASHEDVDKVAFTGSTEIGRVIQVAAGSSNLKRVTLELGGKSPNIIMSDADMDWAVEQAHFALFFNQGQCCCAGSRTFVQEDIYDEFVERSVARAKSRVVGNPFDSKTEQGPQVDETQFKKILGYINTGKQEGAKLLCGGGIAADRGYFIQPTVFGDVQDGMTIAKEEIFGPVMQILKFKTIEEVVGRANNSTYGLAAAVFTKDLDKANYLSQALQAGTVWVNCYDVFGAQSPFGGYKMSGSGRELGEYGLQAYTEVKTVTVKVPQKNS
- measurementNotes: 1,536-well enzymatic assay (NADH fluorescence), ALDH2
- Assay type: biochemical
- measurementSetup: hits of dual cell-based screen (Table 2); read-out: Biochemical IC50 ALDH2
pIC50: −log10 of the molar value.

compound	pIC50
CC(C)N(C(=O)CCl)c1ccccc1 [Propachlor]	4.90

###

- systemUnderTest: Human ALDH3A1 (Homo sapiens)
- Construct: made in house
- Sequence (P30838 1-453): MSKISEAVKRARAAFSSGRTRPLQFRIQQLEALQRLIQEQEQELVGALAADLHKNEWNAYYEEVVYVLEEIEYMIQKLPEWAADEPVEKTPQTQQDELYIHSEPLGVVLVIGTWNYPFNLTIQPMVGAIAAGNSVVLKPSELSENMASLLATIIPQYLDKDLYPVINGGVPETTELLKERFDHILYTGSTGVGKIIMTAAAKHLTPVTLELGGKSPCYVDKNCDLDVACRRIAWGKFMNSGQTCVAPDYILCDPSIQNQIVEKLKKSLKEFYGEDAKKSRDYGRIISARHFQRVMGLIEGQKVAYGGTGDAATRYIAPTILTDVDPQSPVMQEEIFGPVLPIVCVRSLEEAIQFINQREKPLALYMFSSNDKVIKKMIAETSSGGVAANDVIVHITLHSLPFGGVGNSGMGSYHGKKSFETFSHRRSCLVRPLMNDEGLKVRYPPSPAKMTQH
- measurementNotes: 1,536-well enzymatic assay (NADPH fluorescence), ALDH3A1
- Format: biochemical
- measurementSetup: validation set; 5 nM enzyme, NADP+ and benzaldehyde; read-out: Biochemical IC50 ALDH3A1
measure: IC50

molecule	systemUnderTest	reportedValue
O=C1Nc2ccccc2C1=O	Human ALDH3A1 (Homo sapiens)	2410 nM
COc1cccc2cc(C(=O)CC3(O)C(=O)N(Cc4ccccc4)c4ccccc43)c(=O)oc12 (stereo not shown)	Human ALDH3A1 (Homo sapiens)	21500 nM
CCOc1ccc(NCC(=O)Nc2ccc(Cl)cc2C)cc1	Human ALDH3A1 (Homo sapiens)	5390 nM
CCN(CC)c1ccc(C=O)cc1	Human ALDH3A1 (Homo sapiens)	6050 nM
COc1ccc(C(=O)CCN(C)C)cc1F	Human ALDH3A1 (Homo sapiens)	40 nM
CCN(CC)C(=S)SSC(=S)N(CC)CC	Human ALDH3A1 (Homo sapiens)	1910 nM
CC(C)(C)c1ccc(S(=O)(=O)/C=C/C#N)cc1	Human ALDH3A1 (Homo sapiens)	540 nM

Data origin: paper PMC5271370
